tested on: MDA-MB-231 breast; assay: NCI tumour cell line growth inhibition, 48 h
Here the recorded TGI is given for each entry.

> print(dat)
                                   molecule  value.kind   measured
1  CCc1nc(N)nc(N)c1-c1ccc(Cc2ccccc2)c([N+](=O)[O-])c1         TGI  > 70.8 µM
2                   Nc1ccc2c(c1)Cc1ccccc1-2         TGI   > 100 µM
3  COc1cc(-c2nn(-c3ccc(NC(=O)NCCCNC(=O)c4ccccc4)cc3)cc2-c2ccncc2)ccc1Cl         TGI   > 100 µM
4                     ClCCN1CCOC1=C1C=CC=C1         TGI   > 100 µM
5  CC(C)(C)N/N=C(\C(=O)Nc1ccc([N+](=O)[O-])cc1[N+](=O)[O-])c1nc2ccc([N+](=O)[O-])cc2[nH]c1=O         TGI   > 100 µM

## Input Field: TGI (MDA-MB-231 breast). Entry: "O=C(CC(Cl)(Cl)C(Cl)(Cl)Cl)c1ccccc1"
## Output 5.48 µM

## Input Field: TGI (MDA-MB-231 breast). Entry: "Cc1oc2c(c1C)S(=O)(=O)C(C#N)=CN2"
## Output > 100 µM

## Input Field: TGI (MDA-MB-231 breast). Entry: "CCCCCCCCCCCC[C@H](O)[C@H]1CC[C@H]([C@H](O)CCCC[C@H](O)CCCCC[C@@H](O)CC2=C[C@H](C)OC2=O)O1"
## Output 40.9 µM

## Input Field: TGI (MDA-MB-231 breast). Entry: Oc1ccc2c(c1)OCC1c3ccccc3OC21 (stereo not given)
## Output > 100 µM

## Input Field: TGI (MDA-MB-231 breast). Entry: "CCNC(=S)NNC(=O)c1csc(NC(=S)NC2CCCCC2)n1"
## Output 24.9 µM

* * *

tested on: SNB-75 CNS; assay: NCI tumour cell line growth inhibition, 48 h; in the data active = GI50 below about 0.43 µM; inactive = the rest
// allowed return values: class 1 for active, class 0 for inactive

> print(dat)
                                   compound    class
1  COc1ccc(CN2C(=O)C(Cl)=C(Nc3cccc(O)c3)C2=O)cc1  class 0
2  COc1ccc(C(O)c2cc3c(N)c(C(=O)Nc4cccc(OC)c4)sc3nc2C)cc1 (centres undefined)  class 0
3  [N-]=[N+]=NCCCn1c2c(c3ccccc3c1=O)C(=O)c1cc(Br)ccc1-2  class 0

Would you kindly look at the next entry?
## Input # fetch the recorded call for COc1cc(OC)cc(C2C(C#N)=C(N)Oc3c2ccc2ccc(O)cc32)c1 (centres undefined) here
## Output class 1

* * *

Here the recorded TGI is given for each entry.
system: MOLT-4 leukemia; test: NCI tumour cell line growth inhibition, 48 h

> print(dat)
                                   molecule  measured.target   measured
1  COc1cc(NC(=O)c2ccc(C(F)(F)F)nc2Nc2ccc(Cl)cc2C)cc(OC)c1OC  MOLT-4 leukemia    18.2 µM
2  CCCCCCCC/C=C\CCCCCCC/C=C1/C[C@](/C=C/C(=O)OC)(CO)OC1=O  MOLT-4 leukemia  > 21.5 µM
3  CC1(C(=O)O)CCC(C(=O)O)C(C)(C)O1 (configuration not stated)  MOLT-4 leukemia   > 100 µM
4          Nc1nc(-c2ccccc2)cc(-c2ccccc2O)n1  MOLT-4 leukemia    80.2 µM
5  Cc1ccc(Nc2nc(C)c(C(=O)CC(=O)C(=O)Nc3c(C)cccc3C(C)(C)C)s2)cc1  MOLT-4 leukemia   > 100 µM

## Input What measured TGI goes with "COc1cc2c(c(OC)c1OC)-c1ccc(SC)c(=O)cc1[C@@H](OC(=O)c1ccncc1)CC2" ?
## Output > 100 µM

## Input What measured TGI goes with CC(=O)NC1=C(C)C(=O)c2c(nc3n2CCC3OC(=O)CCl)C1=O (configuration not stated) ?
## Output 4.48 µM
